Test system: OVCAR-8 ovarian
Assay: NCI tumour cell line growth inhibition, 48 h
Each entry below carries its recorded TGI.

COMPOUND | TGI
[N-]=[N+]=NC[C@H]1OCO[C@H](CN=[N+]=[N-])[C@@H](OCCOCCCl)[C@@H]1OCCOCCCl | > 100 µM
CCN(CC)CCSc1c2ccccc2nc2cc(NCC(=O)Nc3ccccc3-c3ccccc3NC(=O)CNc3ccc4c(SCCN(CC)CC)c5ccccc5nc4c3)ccc12 | > 100 µM
COc1ccc2c(c1)sc1nc(-c3ccccc3)c(-c3cccc4ccccc34)n12 | > 100 µM

Read off the recorded TGI for COC(=O)/C(C#N)=C1\NC(=O)c2ccccc21
> 100 µM

Retrieve TGI measured for ClCCN1CCC2(CC1)SSC1(CCN(CCCl)CC1)S2 and print it.
> 100 µM

* * *

Test system: SNB-19 CNS
Experiment: NCI tumour cell line growth inhibition, 48 h; in the data active means GI50 below about 0.43 µM; inactive means the rest
Select the correct class. Options are active, inactive and nothing else.

MOLECULE | LABEL CLASS
O=C(Nc1ccc(F)cc1)Nc1ccc(Cl)c([N+](=O)[O-])c1 | inactive
COc1cc2c(cc1OCCCCN1CCN(CC(=O)Nc3ccc(Cl)cc3C(=O)c3ccccc3Cl)CC1)N=CC1CCCN1C2=O (stereo not given) | active
O=C1NC(=NCCc2cccc(F)c2)S/C1=C\c1ccc2ncccc2c1 | inactive
Cc1ccc(CN2CCC(C(=O)Nc3ccc(-c4cc5ccccc5[nH]4)cc3)CC2)o1 | inactive
Nc1nc(-n2c(-c3ccccc3)nc3c(Br)cc(Br)cc3c2=O)nnc1-c1cccc(Cl)c1Cl | inactive

Could you kindly confirm the outcome this assay logged for COc1cc(/C=N\NC(=O)CN2CCN(c3cc4c(cc3F)c(=O)c(C(=O)N/N=C/c3cc(OC)c(OC)c(OC)c3)cn4C3CC3)CC2)cc(OC)c1OC ?
inactive

Fill in: this test's call for COC(=O)/C=C1\S/C(=N\NC(=O)c2cc3ccc2/C=C\c2ccc(cc2)/C=C\3)N(c2ccccc2)C1=O is ___
inactive

What classification did FC(F)(F)c1cccc(Nc2nc(-c3ccccc3)nc3ncccc23)c1 end up with in this test?
inactive

// outcome(item) with item = Fc1[nH]nc2ccc([C@@H]3Nc4ccc5[nH]ncc5c4[C@H]4C5CCC(C5)[C@@H]34)cc12 (stereo not given in full)
inactive

Outcome logged for Nc1c(C(=O)c2cccc(CCS(N)(=O)=O)c2)cnn1-c1ccc(F)cc1 in this assay:
inactive

* * *

Items are presented alongside their recorded TGI.
System: IGROV1 ovarian
Test: NCI tumour cell line growth inhibition, 48 h

These recorded examples may help you get a feel for the data.
COMPOUND | TARGET DESC | TGI
O=C1C=CC(=O)c2c1ccc1c3ccccc3n(CCCCCCCCCCCCn3c4ccccc4c4ccc5c(c43)C(=O)C=CC5=O)c21 | IGROV1 ovarian | > 100 µM
O=C(O)CCC(NC(=O)c1ccc(Nc2nc3ccccc3nc2-c2cccs2)cc1)C(=O)O (stereo not given) | IGROV1 ovarian | > 100 µM

Supply recorded TGI for Cc1ccc(Cl)c2c(N=Nc3ccccc3[N+](=O)[O-])c(O)[nH]c12 here.
> 100 µM

Identify measured TGI corresponding to O=C1/C(=C\c2ccccc2)C(NC2CCCCC2)c2ccccc21 (stereo not given)
10.4 µM

Tell me measured TGI for CCOC(=O)c1csc(NC(=O)CN2CCOCC2)n1 please.
> 100 µM
